Data provenance is paper PMC6008489.

Below: a set of entries, each annotated with reported inhibition at 100 µM.
Biological target: GSK3b (Homo sapiens, UniProt P49841)
Construct: purchased Perkin Elmer (ProfilerPro assay kit 1)
Sequence (P49841 whole entry): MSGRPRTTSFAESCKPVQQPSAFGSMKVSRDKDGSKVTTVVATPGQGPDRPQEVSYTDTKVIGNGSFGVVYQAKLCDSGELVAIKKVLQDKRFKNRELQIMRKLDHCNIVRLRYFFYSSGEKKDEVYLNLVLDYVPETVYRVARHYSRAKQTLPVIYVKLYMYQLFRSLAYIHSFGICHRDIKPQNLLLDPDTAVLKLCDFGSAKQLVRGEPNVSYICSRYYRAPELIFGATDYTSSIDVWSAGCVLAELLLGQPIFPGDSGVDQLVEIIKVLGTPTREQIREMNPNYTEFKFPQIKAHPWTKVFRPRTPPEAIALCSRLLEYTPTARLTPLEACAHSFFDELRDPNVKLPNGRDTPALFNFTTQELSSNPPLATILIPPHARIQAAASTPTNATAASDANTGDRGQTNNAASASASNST
Experiment: 26-kinase panel mobility shift assay, single concentration
Assay type: biochemical
Conditions: read-out: % Inhibition GSK3
// return numeric value only (unit: %, not printed)

Example compounds with recorded inhibition at 100 µM:
Form: Entry = CNc1nccc(-c2c[nH]c(=O)c(N)c2)n1 [Compound 7] | System = GSK3b (Homo sapiens, UniProt P49841) | inhibition at 100 µM = ____ 89

Enter reported inhibition at 100 µM observed with GSK3b (Homo sapiens, UniProt P49841) for COc1ncc(-c2ccncc2)cc1N [Compound 5, 6-Methoxy-3,4′-bipyridin-5-amine] 26

I'm curious: which inhibition at 100 µM was measured for Nc1ccc[nH]c1=O [Compound 1, 3-aminopyridin-2-one] tested on GSK3b (Homo sapiens, UniProt P49841)? 17

Lab note: need inhibition at 100 µM with GSK3b (Homo sapiens, UniProt P49841) for entry Nc1cc(-c2ccnc(NC3CC3)n2)c[nH]c1=O [Compound 8] , please look it up. 87

# query: inhibition at 100 µM | item Cn1cc(-c2c[nH]c(=O)c(N)c2)cn1 [Compound 2] | system: GSK3b (Homo sapiens, UniProt P49841) 68

Others:
Hello, I am looking for reported inhibition at 100 µM with GSK3b (Homo sapiens, UniProt P49841) for Nc1cc(-c2ccnc3ccccc23)c[nH]c1=O [Compound 6] . Could you help? 20

What reported inhibition at 100 µM corresponds to Cc1nc(O)c(N)cc1-c1ccncc1 [Compound 15] on GSK3b (Homo sapiens, UniProt P49841)? 39
